Test system: U‐251 MG and HEK293 cells
procedureText: Statistical comparison of dose–response in U‐251 MG versus HEK293 (selectivity, HIT criteria)
Assay type: cell-based, human
measurementParameters: HEK293 IC50 higher than U‐251 MG IC50, U‐251 MG IC50 below 50 µM
recordedEndpoint: Selectivity for cancer cells with IC50 < 50 [µM]‐Yes/No

IN: For the molecule CC(C)c1cc2[nH]c(C(C)C)cc(=O)n2n1 [Compound 18] , give its reported Selectivity for cancer cells with IC50 < 50 [µM]‐Yes/No.
OUT: No

IN: For the molecule Cc1cc(C)cc(-c2cc(=O)n3nc(C(C)C)cc3[nH]2)c1 [Compound 3] , give its reported Selectivity for cancer cells with IC50 < 50 [µM]‐Yes/No.
OUT: No

IN: For the molecule O=c1cc(-c2cc(C(F)(F)F)cc(C(F)(F)F)c2)[nH]c2cc(-c3ccc([N+](=O)[O-])cc3)nn12 [Compound 10] , give its reported Selectivity for cancer cells with IC50 < 50 [µM]‐Yes/No.
OUT: Yes

IN: For the molecule O=c1cc(-c2cc(C(F)(F)F)cc(C(F)(F)F)c2)[nH]c2cc(-c3ccc(Cl)cc3)nn12 [Compound 8] , give its reported Selectivity for cancer cells with IC50 < 50 [µM]‐Yes/No.
OUT: Yes
